tested on: OVCAR-5 complex spheroids with HUVEC/MSC, viability, % test/control; assay: Anticancer human tumor OVCAR-5 cell line growth inhibition [AhR]; conditions: second compound 0.316 µM; first compound 0.0316 µM; stronger effect = lower value;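 further: spheroids exposed to compounds for 7 days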;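 on viability, T/C: 100% = DMSO vehicle control wells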
OBSERVED PROPERTY: viability, T/C (%)
Return type: number; implicit unit %.

Just so you know, measured viability, T/C for Nc1ncn(C2CC(O)C(CO)O2)c(=O)n1 (configuration not stated) + Cc1cncc(-c2nc(NCCc3c[nH]c4ccccc34)c3ncn(C(C)C)c3n2)c1 came out at 90

Just so you know, measured viability, T/C for CC1COCCN1c1cc(C2(S(C)(=N)=O)CC2)nc(-c2ccnc3[nH]ccc23)n1 (configuration not stated) + CC(CO)NC(=O)c1cc(-c2ccc(Cl)cc2)nn(-c2cnn(C)c2)c1=O came out at 109

Just so you know, measured viability, T/C for COc1ccc([C@@H](O)c2cc(-c3ncnc4cc(N5CCOCC5)ccc34)c(F)cc2Cl)nn1 + Cc1ccccc1N=Nc1ccc(NC(=O)c2ccnn2C)c(C)c1 came out at 104

Just so you know, measured viability, T/C for CC1(C)CCC(CN2CCN(c3ccc(C(=O)NS(=O)(=O)c4ccc(NCC5CCOCC5)c([N+](=O)[O-])c4)c(Oc4cnc5[nH]ccc5c4)c3)CC2)=C(c2ccc(Cl)cc2)C1 + CC(CO)NC(=O)c1cc(-c2ccc(Cl)cc2)nn(-c2cnn(C)c2)c1=O came out at 111

Just so you know, measured viability, T/C for CC1COCCN1c1cc(-c2ccnn2C)c2ccnc(-c3ccn[nH]3)c2n1 (configuration not stated) + Cc1ccccc1N=Nc1ccc(NC(=O)c2ccnn2C)c(C)c1 came out at 101

Just so you know, measured viability, T/C for Nc1ccccc1NC(=O)c1ccc(CNC(=O)OCc2cccnc2)cc1 + Cc1cncc(-c2nc(NCCc3c[nH]c4ccccc34)c3ncn(C(C)C)c3n2)c1 came out at 86

Just so you know, measured viability, T/C for Nc1ccn(C2OC(CO)C(O)C2(F)F)c(=O)n1 (configuration not stated) + Cc1ccccc1N=Nc1ccc(NC(=O)c2ccnn2C)c(C)c1 came out at 27.5

----------
tested on: OVCAR-5 complex spheroids with HUVEC/MSC, viability, % test/control; test: Anticancer human tumor OVCAR-5 cell line growth inhibition [AhR]; conditions: second compound 10 µM; first compound 0.003 µM; stronger effect = lower value;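 further: spheroids exposed to compounds for 7 days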;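 on viability, T/C: 100% = DMSO vehicle control wells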
OBSERVED PROPERTY: viability, T/C (%)
Return type: number; implicit unit %.

Just so you know, measured viability, T/C for CCc1c2c(nc3ccc(O)cc13)-c1cc3c(c(=O)n1C2)COC(=O)[C@]3(O)CC + Cc1ccccc1N=Nc1ccc(NC(=O)c2ccnn2C)c(C)c1 came out at 65.9

Just so you know, measured viability, T/C for CCc1c2c(nc3ccc(O)cc13)-c1cc3c(c(=O)n1C2)COC(=O)[C@]3(O)CC + Cc1cncc(-c2nc(NCCc3c[nH]c4ccccc34)c3ncn(C(C)C)c3n2)c1 came out at 5.37

Just so you know, measured viability, T/C for Nc1ncn(C2CC(O)C(CO)S2)c(=O)n1 (centres undefined) + Cc1ccccc1N=Nc1ccc(NC(=O)c2ccnn2C)c(C)c1 came out at 111

Just so you know, measured viability, T/C for CC(C)CC(NC(=O)C(Cc1ccccc1)NC(=O)c1cnccn1)B(O)O (centres undefined) + Cc1ccccc1N=Nc1ccc(NC(=O)c2ccnn2C)c(C)c1 came out at 105

Just so you know, measured viability, T/C for CC(C)CC(NC(=O)C(Cc1ccccc1)NC(=O)c1cnccn1)B(O)O (centres undefined) + Cc1cncc(-c2nc(NCCc3c[nH]c4ccccc34)c3ncn(C(C)C)c3n2)c1 came out at 24.7

Just so you know, measured viability, T/C for CCc1c2c(nc3ccc(O)cc13)-c1cc3c(c(=O)n1C2)COC(=O)[C@]3(O)CC + CC(CO)NC(=O)c1cc(-c2ccc(Cl)cc2)nn(-c2cnn(C)c2)c1=O came out at 51.4

Just so you know, measured viability, T/C for CC(C)CC(NC(=O)C(Cc1ccccc1)NC(=O)c1cnccn1)B(O)O (centres undefined) + CC(CO)NC(=O)c1cc(-c2ccc(Cl)cc2)nn(-c2cnn(C)c2)c1=O came out at 97.7

Just so you know, measured viability, T/C for Nc1ncn(C2CC(O)C(CO)S2)c(=O)n1 (centres undefined) + CC(CO)NC(=O)c1cc(-c2ccc(Cl)cc2)nn(-c2cnn(C)c2)c1=O came out at 101

Just so you know, measured viability, T/C for Nc1ncn(C2CC(O)C(CO)S2)c(=O)n1 (centres undefined) + Cc1cncc(-c2nc(NCCc3c[nH]c4ccccc34)c3ncn(C(C)C)c3n2)c1 came out at 17.9

----------
Assignment: determine reported pIC50 for the given compounds.
test system: OVCAR-5 complex spheroids with HUVEC/MSC, viability, % test/control; assay: Anticancer human tumor OVCAR-5 cell line growth inhibition [AhR]; settings: curve of first compound; second compound 0.316 µM;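 further: spheroids exposed to compounds for 7 days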
# pIC50 is unitless: minus log10 of the molar concentration; print number only

Just so you know, measured pIC50 for CC[C@@]1(O)C(=O)OCc2c1cc1n(c2=O)Cc2cc3c(CN(C)C)c(O)ccc3nc2-1 + Cc1ccccc1N=Nc1ccc(NC(=O)c2ccnn2C)c(C)c1 came out at 7.61

Just so you know, measured pIC50 for O=C(C=Cn1cnc(-c2cc(C(F)(F)F)cc(C(F)(F)F)c2)n1)NNc1cnccn1 + Cc1ccccc1N=Nc1ccc(NC(=O)c2ccnn2C)c(C)c1 came out at 5.63

Just so you know, measured pIC50 for COc1cc(Nc2ncc3c(n2)-c2ccc(Cl)cc2C(c2c(F)cccc2OC)=NC3)ccc1C(=O)O + CC(CO)NC(=O)c1cc(-c2ccc(Cl)cc2)nn(-c2cnn(C)c2)c1=O came out at 5.61

----------
tested on: OVCAR-5 complex spheroids with HUVEC/MSC, viability, % test/control; test: Anticancer human tumor OVCAR-5 cell line growth inhibition [AhR]; details: second compound 1 µM; first compound 10 µM; stronger effect = lower value;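 further: spheroids exposed to compounds for 7 days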;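 on viability, T/C: 100% = DMSO vehicle control wells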
Assignment: determine reported viability, T/C for the given molecules.
Return type: number; implicit unit %.

Just so you know, measured viability, T/C for COc1cc(C2c3cc4c(cc3C(OC3OC5COC(C)OC5C(O)C3O)C3COC(=O)C23)OCO4)cc(OC)c1O (configuration not stated) + Cc1ccccc1N=Nc1ccc(NC(=O)c2ccnn2C)c(C)c1 came out at 36.1

Just so you know, measured viability, T/C for O=C(C=Cc1cccc(S(=O)(=O)Nc2ccccc2)c1)NO + Cc1cncc(-c2nc(NCCc3c[nH]c4ccccc34)c3ncn(C(C)C)c3n2)c1 came out at 6.35

Just so you know, measured viability, T/C for COc1cc(C2c3cc4c(cc3C(OC3OC5COC(C)OC5C(O)C3O)C3COC(=O)C23)OCO4)cc(OC)c1O (configuration not stated) + Cc1cncc(-c2nc(NCCc3c[nH]c4ccccc34)c3ncn(C(C)C)c3n2)c1 came out at 37.4

Just so you know, measured viability, T/C for COc1cc(Nc2ncc3c(n2)-c2ccc(Cl)cc2C(c2c(F)cccc2OC)=NC3)ccc1C(=O)O + Cc1cncc(-c2nc(NCCc3c[nH]c4ccccc34)c3ncn(C(C)C)c3n2)c1 came out at 44.1

Just so you know, measured viability, T/C for Nc1ccccc1NC(=O)c1ccc(CNC(=O)OCc2cccnc2)cc1 + CC(CO)NC(=O)c1cc(-c2ccc(Cl)cc2)nn(-c2cnn(C)c2)c1=O came out at 7.87

Just so you know, measured viability, T/C for Nc1ccccc1NC(=O)c1ccc(CNC(=O)OCc2cccnc2)cc1 + Cc1cncc(-c2nc(NCCc3c[nH]c4ccccc34)c3ncn(C(C)C)c3n2)c1 came out at 7.92

Just so you know, measured viability, T/C for CC1COCCN1c1cc(C2(S(C)(=N)=O)CC2)nc(-c2ccnc3[nH]ccc23)n1 (configuration not stated) + Cc1ccccc1N=Nc1ccc(NC(=O)c2ccnn2C)c(C)c1 came out at 47.8

Just so you know, measured viability, T/C for CC1(C)CCC(CN2CCN(c3ccc(C(=O)NS(=O)(=O)c4ccc(NCC5CCOCC5)c([N+](=O)[O-])c4)c(Oc4cnc5[nH]ccc5c4)c3)CC2)=C(c2ccc(Cl)cc2)C1 + CC(CO)NC(=O)c1cc(-c2ccc(Cl)cc2)nn(-c2cnn(C)c2)c1=O came out at 53.8

Just so you know, measured viability, T/C for COc1ccc([C@@H](O)c2cc(-c3ncnc4cc(N5CCOCC5)ccc34)c(F)cc2Cl)nn1 + Cc1cncc(-c2nc(NCCc3c[nH]c4ccccc34)c3ncn(C(C)C)c3n2)c1 came out at 28.8

Just so you know, measured viability, T/C for O=C(c1cc(Cc2n[nH]c(=O)c3ccccc23)ccc1F)N1CCN(C(=O)C2CC2)CC1 + Cc1ccccc1N=Nc1ccc(NC(=O)c2ccnn2C)c(C)c1 came out at 94.2

Just so you know, measured viability, T/C for Nc1ccn(C2OC(CO)C(O)C2(F)F)c(=O)n1 (configuration not stated) + CC(CO)NC(=O)c1cc(-c2ccc(Cl)cc2)nn(-c2cnn(C)c2)c1=O came out at 30.1

Just so you know, measured viability, T/C for COc1cc(Nc2ncc3c(n2)-c2ccc(Cl)cc2C(c2c(F)cccc2OC)=NC3)ccc1C(=O)O + CC(CO)NC(=O)c1cc(-c2ccc(Cl)cc2)nn(-c2cnn(C)c2)c1=O came out at 41.8
